# testDetails: protein stability index of a GFP-peptide fusion (yeast GPS) (PSI 1-4); higher = more stable; sorted into four equal gates, so the index is relative within each strain
# conditionsUsed: doa10∆
Entries are grouped by protein stability index into these classes: class A = under 2, class B = from 2 up to 3, class C = 3 and over

> print(dat)
                        sequencerecord  categorylabel
 1            LNCGNGMGIGFIDHHAA [POP1]        class C
 2            FLDSMAQKYASIVGVDL [FAS2]        class A
 3           NIIQAKRDAKAAGSYYV [RPL7A]        class C
 4           SVVHPGEMVGVLAAQSI [RPO21]        class A
 5           DEEIIQLHFSLLDEEAE [RPO21]        class B
 6            IRVTNSFALPFEEDEKN [RPN8]        class B
 7           LQYLDKHIKNLEDDSLL [RPN12]        class C
 8            RPSITEAMMLKEEGLQQ [MED1]        class C
 9           EGKRIAFGFVDRTLPHF [RPO21]        class B
10          TRLWGSVYYHKGNFRTK [SNU114]        class C
11            ELSIRFPQYKLTTFANQ [ARP7]        class A
12            NVNNNNIGQQQVKKPRK [SWI1]        class C
13           HYGQTLGKKKNVKEEET [RPS8A]        class B
14   LTYKSELSKSRALQENG [YMR153W/NUP53]        class A
15            NSDDFFMDNSYDIDEID [ESC2]        class B
16            NLLKFITSNHKSSVPGS [RPN3]        class B
17            KDNVEHLVMRAISLGLL [RPN9]        class B
18            ESMLHLSIWIKNYPEYF [IRR1]        class B
19           SSKAATPDTKNFFHAKK [SNF12]        class C
20            QFELLSRRWRQRKNIQS [BRR2]        class A
21            LNVAEIITSGRDTREVL [ARP9]        class C
22            NWRRLSGRNIHLAVVCV [SSN2]        class B
23            NIMVTIDGCVKIGDLGL [SSN3]        class C
24            AFGEFSLEGCVEMAWIM [FAS2]        class B
25            QSTNLNRSAKNSKNDSA [YCS4]        class B
26           QEETVVEQTAEVTIEDA [RPS12]        class C
27            TLLYEQIIQRDKINKYS [SNF5]        class C
28            SKYGMLLLRCDDRVDKK [POP3]        class C
29            LGWDLDAIIPFAAIPEQ [FAS2]        class B
30    LEYEISKLKKETASFIP [YIL149C/MLP2]        class B
31           RLKYALNGREVKAILMQ [RPS4A]        class A
32           GSVLLTLLNFVSNNVLR [ECM29]        class A
33            SSDALSKEKANFLETIA [SIR4]        class A
34  FYDIRSLLERHIPRLIP [YJL039C/NUP192]        class B
35            LITPAVRNTAPNIRELG [YCG1]        class B
36            KTFSRLDALTRHIKSKH [RPN4]        class A
37            YKRSIVRNYKPLINRLK [SWI1]        class B
38            NNANVLGGEINDNEDDD [BRR2]        class C
39            DTTFSDFKEVEDFLHFI [SRB4]        class B
40          MANDLVQARDNSQVFGV [RPS14B]        class B
41            SVQLPDMAKLKKMMNTS [SWI3]        class B
42          SYDRTLLIADSRRPEPK [RPS16A]        class B
43            ILSLIEEAAGTKMFEDR [SMC2]        class C

---

# testDetails: protein stability index of a GFP-peptide fusion (yeast GPS) (PSI 1-4); higher = more stable; sorted into four equal gates, so the index is relative within each strain
# conditionsUsed: san1∆
The entries below come with measured protein stability index values attached.
quantityName: protein stability index

> print(dat)
                      sequencerecord  measurement
1           MVVQKYKLSTVVLRLYL [GRR1]         1.38
2  YLSGAIPNQEVLQYSDW [YDL116W/NUP84]         2.29
3           KVEIPLPNEAGRLEIFK [RPT4]         2.52
4          VTNNVEEGEFIIDLYSL [TAF14]         3.58
5           KTSLSIKVENLNDTTEK [SMC2]         3.09
6           NQQPQQQQQQQQNPKFL [SWI1]         2.99
7          YTETDPAKVAEEGINKF [SRP54]          2.9
8           QDNKKIYVHVRRSTPFS [ESC2]         2.61

---

# testDetails: protein stability index of a GFP-peptide fusion (yeast GPS) (PSI 1-4); higher = more stable; sorted into four equal gates, so the index is relative within each strain
# conditionsUsed: san1∆
List of protein stability index values.
quantityName: protein stability index

> print(dat)
                        sequencerecord             quantityname  measurement
 1           DAHGVTQARVITGNKIM [RPS13]  protein stability index         1.22
 2            SCSFFAKLSDTLIIDQV [NUT1]  protein stability index         2.06
 3            KDERDTWIHSEIEELKS [SMC3]  protein stability index         2.91
 4            YSIDEFFLQRKLRSELG [BRR2]  protein stability index          1.8
 5          GRGTLFVRGDSKIFRFQ [RPL24A]  protein stability index         1.95
 6            LLHVAVSDSNDDVRRAA [RPN2]  protein stability index         2.69
 7            MVEGDSYVETLDSMIEL [MED1]  protein stability index         3.33
 8           APEKDIWVGEWKEVLAH [RPO31]  protein stability index         2.16
 9            ISTRERDYLVDTLKLRE [RRP6]  protein stability index         2.97
10            PKWERVFLFDIEKVDRE [RRI2]  protein stability index          2.1
11   RSEFIESLLNWINRSDG [YJR042W/NUP85]  protein stability index         2.77
12           NDYLEKHSVTEYIFEAH [CDC53]  protein stability index         3.12
13            LQPLEEGLIIDTDKLPI [SIN4]  protein stability index         2.75
14          VLQPLLPRELPKLLDAL [SNU114]  protein stability index         2.73
15            WTIPHKKWNDLKNKNFK [SIR2]  protein stability index         3.29
16           KARTNLHQHVVLKCLKS [RPC34]  protein stability index         2.33
17            ENFSNGISLVMEIVANA [MED1]  protein stability index          2.5
18    LQRDLIQTKEQVSINSN [YIL149C/MLP2]  protein stability index         3.11
19           LGKKKATVDEFPLCVHL [RPL10]  protein stability index            3
20    MRELGLIQSTEFPSITS [YOR098C/NUP1]  protein stability index         2.21
21    NSPSKGNSERPSAVAGF [YIL149C/MLP2]  protein stability index          3.1
22            SEEKIRDYSKEILGINL [SIR4]  protein stability index         2.88
23            GHRADVGGQFSKVQFDA [REC8]  protein stability index         3.28
24            RMIPPRMVRSIMWQLLD [SSN3]  protein stability index         1.56
25            PRETIPFLHLRKKTPAG [FAS2]  protein stability index         2.63
26            SNGSGIVAAGGGSGAAT [CSL4]  protein stability index         3.45
27            NATLQALYRVNDLRDMI [UBP6]  protein stability index         3.03
28            IALMGQDNKKIYVHVRR [ESC2]  protein stability index         2.47
29            VLCLTRSSYMLELVNTP [YCG1]  protein stability index         1.77
30           DESNDIDMIADENGTNS [RPC37]  protein stability index         2.88
31            FQAHEITSFLLSKMENV [NAS6]  protein stability index         1.66
32  AVDAKQLAQIRQFLKAN [YML103C/NUP188]  protein stability index         2.96
33            GKHSQEQNSSSAKPSQI [SIR4]  protein stability index         3.02
34  YSYTTIVLSDQTQEFFL [YJL039C/NUP192]  protein stability index         2.93
35            NSNDSVFVGSGKGTGKT [BRR2]  protein stability index         3.32
36           LQESINHVMYTEVSRKS [ECM29]  protein stability index         2.47
37            IAGFDLIGCIDEAKDFI [PUP3]  protein stability index         3.08
38            SLVEVVFYRGMTMQVAV [FAS1]  protein stability index          1.4
39   QMSLEANVVDITNDWEQ [YJR042W/NUP85]  protein stability index         2.92
40            KSDEAKWKPVLSHIVYF [RPN5]  protein stability index         2.23
41            NKGWKLQSLNESKDLLR [SRB4]  protein stability index         2.32
